# assayOverview: Growth and viability of lymphoblastoid cell cultures of the Namalva strain
# Assay type: cell-based
# experimentalConditions: human, namalva lymphoblastoid cells; 10 g/l in 9% of NaCl; control = 100%; read-out: Cell Culture Growth %
metricName: activity (%)

1. C[N+](C)(C)CCOP(=O)([O-])OCCC(F)(F)C(F)(F)C(F)(F)C(F)(F)C(F)(F)C(F)(F)C(F)(F)C(F)(F)F
96

====

# Test system: mice
# assayOverview: Injection into the tail vein of mice (deaths, growth)
# Format: in vivo
# experimentalConditions: 500 μl in NaCl 9%, 10 mice of 20-25g, observed for 35 days
concentration of which injection caused no deaths and did not perturb the normal growth by entry:
metricName: concentration of which injection caused no deaths and did not perturb the normal growth (g/L)

1. C[N+](C)(C)CCOP(=O)([O-])OCC(COC(=O)CCCCC(F)(F)C(F)(F)C(F)(F)C(F)(F)C(F)(F)C(F)(F)F)OC(=O)CCCCC(F)(F)C(F)(F)C(F)(F)C(F)(F)C(F)(F)C(F)(F)F (racemic)
100
2. C[N+](C)(C)CCOP(=O)([O-])OCCC(F)(F)C(F)(F)C(F)(F)C(F)(F)C(F)(F)C(F)(F)C(F)(F)C(F)(F)F
1
3. COCCOP(=O)(OCCOC)OCC(COC(=O)CCCCCCCCCCC(F)(F)C(F)(F)C(F)(F)C(F)(F)C(F)(F)C(F)(F)F)OC(=O)CCCCCCCCCCC(F)(F)C(F)(F)C(F)(F)C(F)(F)C(F)(F)C(F)(F)F (racemic)
10
4. C[N+](C)(C)CCOP(=O)([O-])OCC(COC(=O)CCCCCCCCCCC(F)(F)C(F)(F)C(F)(F)C(F)(F)C(F)(F)C(F)(F)F)OC(=O)CCCCCCCCCCC(F)(F)C(F)(F)C(F)(F)C(F)(F)C(F)(F)C(F)(F)F (racemic)
30

These data points were gathered from patent US5344930A.
